- MEASURED_TARGET: T1, HLA class I molecule A02.01
- T1 construct: Purified MHC class I complex; also called HLA-A02:01
- MEASUREMENT_NOTES: pMHC-I dissociation half-life, 125I-b2m
A collection of binders and their measured Stability (T1/2 (h))
// return numeric value only (unit: h, not printed)

Solved cases below.
> print(dat)
                               binder  units.text  readout.value
1  MNIANLLGA (also called KIT, V654A)           h            0.3
2  SLYIVGFYG (also called MEK, P124L)           h              0
3  FSGEYIPTV (also called RAC1, P29S)           h            6.8

Request: Suppose we examine the binder IIIEYCFYG (also called PDGFRa, T674I) ; what Stability (T1/2 (h)) value has been reported?
Response: 1.2
